Molecular target: Solute carrier family 2, facilitated glucose transporter member 2 (Homo sapiens)
Sequence (P11168 whole entry): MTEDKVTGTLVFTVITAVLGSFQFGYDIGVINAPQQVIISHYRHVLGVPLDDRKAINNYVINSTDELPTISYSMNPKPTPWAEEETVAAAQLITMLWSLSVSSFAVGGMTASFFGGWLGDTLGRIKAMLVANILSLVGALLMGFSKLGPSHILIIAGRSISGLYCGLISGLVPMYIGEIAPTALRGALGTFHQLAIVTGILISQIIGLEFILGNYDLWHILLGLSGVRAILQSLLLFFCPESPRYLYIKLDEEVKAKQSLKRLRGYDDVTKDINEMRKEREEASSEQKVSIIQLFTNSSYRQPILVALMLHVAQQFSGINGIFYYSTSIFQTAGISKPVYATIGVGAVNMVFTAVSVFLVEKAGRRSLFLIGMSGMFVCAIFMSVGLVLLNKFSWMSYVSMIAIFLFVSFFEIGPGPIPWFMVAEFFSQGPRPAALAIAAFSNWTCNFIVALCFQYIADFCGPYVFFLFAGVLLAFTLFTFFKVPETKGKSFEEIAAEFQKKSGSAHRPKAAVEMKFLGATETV
Test: Inhibition of human GLUT2 expressed in CHO cells assessed as ATP production co-incubated with 30 mM fructose for 16 hrs by CellTiter-Glo assay in presence of oxidative phosphorylation inhibitor rotenone
# key: entry, value: IC50

Some compounds with recorded IC50:
COc1ccccc1N1CCN(c2ncnc3c2ncn3-c2ccccc2)CC1: 3500 nM
COc1ccncc1N1CCN(c2ncnc3c2cnn3-c2ccccc2)CC1: 510 nM
COc1ccccc1N1CCN(c2ncnc3c2cnn3-c2cc(F)cc(F)c2)CC1: > 10000 nM
COc1ccccc1N1CCN(c2ncnc3c2cnn3-c2ccccc2)C(C)C1 (stereo not given): 2500 nM

Please find the next compound below.
// query IC50 value for entry `COc1ccccc1N1C[C@@H]2C[C@H]1CN2c1ncnc2c1cnn2-c1ccccc1` > 10000 nM

* * *

This listing pairs compounds with measured CLint scaled.
Assay: Intrinsic clearance in rat hepatocytes
Assay type: ADME, cell-based, Hepatocyte
Details: read-out: CLH (converted)
Write the number in mL/min/kg without appending the unit.

Solved entries (count: 3):
COc1ccccc1N1CCN(c2ncnc3c2cnn3-c2ccccc2)CC1: 45
COc1ccccc1N1CCN(c2ncnc3c2cnn3C2CCCC2)CC1: 61.7
COc1ccc(F)cc1N1CCN(c2ncnc3c2cnn3-c2ccccc2)CC1: 43.3

For the next question, use this compound.
Fill in: CLint scaled of `COc1ccccc1N1CCN(c2ncnc3c2cnn3-c2ccccc2F)CC1` is ___ 36.7

* * *

Target: Solute carrier family 2, facilitated glucose transporter member 3 (Homo sapiens)
Sequence (P11169 whole entry): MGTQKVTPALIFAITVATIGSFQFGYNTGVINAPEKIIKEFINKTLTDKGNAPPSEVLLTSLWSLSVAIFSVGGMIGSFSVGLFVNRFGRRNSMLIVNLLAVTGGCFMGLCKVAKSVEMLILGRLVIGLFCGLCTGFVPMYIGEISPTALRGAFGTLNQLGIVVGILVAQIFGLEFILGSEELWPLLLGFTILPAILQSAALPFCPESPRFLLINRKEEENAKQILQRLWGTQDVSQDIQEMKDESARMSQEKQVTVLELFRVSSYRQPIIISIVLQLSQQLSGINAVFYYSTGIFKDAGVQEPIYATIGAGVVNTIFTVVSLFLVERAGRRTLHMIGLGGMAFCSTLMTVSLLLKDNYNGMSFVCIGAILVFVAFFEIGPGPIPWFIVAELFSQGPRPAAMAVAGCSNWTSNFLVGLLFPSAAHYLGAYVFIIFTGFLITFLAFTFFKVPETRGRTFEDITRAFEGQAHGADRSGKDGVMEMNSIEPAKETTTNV
Assay: Inhibition of human GLUT3 expressed in GLUT1 knock-out DLD1 cells assessed as ATP production co-incubated with 300 mM glucose for 16 hrs by CellTiter-Glo assay in presence of oxidative phosphorylation inhibitor rotenone
Each entry below carries its recorded IC50.
Numeric only. Scale: µM

COc1ccccc1N1CCN(c2ncnc3c2cnn3-c2cccc(C)c2)CC1: 0.096
COc1ncccc1N1CCN(c2ncnc3c2cnn3-c2ccccc2)CC1: 0.68
COc1ccccc1N1CCN(c2ncnc3c2[nH]c(=O)n3-c2ccccc2)CC1: 0.63
COc1ccccc1N1CCN(c2ncnc3c2cnn3-c2ccncc2)CC1: 1.6

Param readout= IC50; system= Solute carrier family 2, facilitated glucose transporter member 3 (Homo sapiens); entry= COc1ccccc1N1CCN(c2ncnc3c2cnn3C(C)c2ccccc2)CC1 (centres undefined) ; returns value. 0.95

Value wanted: IC50 (Solute carrier family 2, facilitated glucose transporter member 3 (Homo sapiens)) of entry `COc1ccccc1N1CCN(c2ncnc3c2cnn3-c2cccnc2)CC1` 1.5

Param readout = IC50; param system = Solute carrier family 2, facilitated glucose transporter member 3 (Homo sapiens); param query = `COc1ccc(-n2ncc3c(N4CCN(c5ccccc5OC)CC4)ncnc32)cn1` ; response: value 0.34

Query the reported IC50 for Solute carrier family 2, facilitated glucose transporter member 3 (Homo sapiens); item: `N#Cc1ccccc1N1CCN(c2ncnc3c2cnn3-c2ccccc2)CC1` 2.05

Test system Solute carrier family 2, facilitated glucose transporter member 3 (Homo sapiens); read-out IC50; what value for `COc1ccccc1N1CCN(c2ncnc3c2cnn3-c2ccc(F)cc2)CC1` ? 0.046

Checklist item: IC50 tested on Solute carrier family 2, facilitated glucose transporter member 3 (Homo sapiens), entry `COc1ccccc1N1CCCN(c2ncnc3c2cnn3-c2ccccc2)CC1` , value? 0.008

Notebook: pull reported IC50 for Solute carrier family 2, facilitated glucose transporter member 3 (Homo sapiens), entry `COc1ccccc1N1CC2(C1)CN(c1ncnc3c1cnn3-c1ccccc1)C2` 2.2

For Solute carrier family 2, facilitated glucose transporter member 3 (Homo sapiens), provide IC50 of `COc1c(F)cccc1N1CCN(c2ncnc3c2cnn3-c2ccccc2)CC1` please. 10

# get_value(readout= IC50, system= Solute carrier family 2, facilitated glucose transporter member 3 (Homo sapiens)) for `COc1ccccc1N1CCN(c2ncnc3c2cnn3-c2ccc(C)cc2)CC1` 3

// map `COc1cc(F)ccc1N1CCN(c2ncnc3c2cnn3-c2ccccc2)CC1` to recorded IC50 (system: Solute carrier family 2, facilitated glucose transporter member 3 (Homo sapiens)) 0.04

For Solute carrier family 2, facilitated glucose transporter member 3 (Homo sapiens), provide IC50 of `COc1ccccc1N1CCN(c2ncnc3c2cnn3-c2ccccc2)CC1` please. 0.25

Form field - read-out: IC50; system: Solute carrier family 2, facilitated glucose transporter member 3 (Homo sapiens); submitted item: `COc1cccc(N2CCN(c3ncnc4c3cnn4-c3ccccc3)CC2)c1` 0.32

API: value(readout= IC50, system= Solute carrier family 2, facilitated glucose transporter member 3 (Homo sapiens), query= COc1ccccc1N1CCN(c2ncnc3c2cnn3-c2ccccc2)CC1C (centres undefined) ) 0.12

The values you see were collected from ChEMBL document CHEMBL3779893.
